These data points were gathered from patent US20220017630A1.

MEASURED TARGET: T1, human TNFR2 on the cell surface (CHO-TNFR2 cells; human Treg cells) (human, UniProt P20333 23-461); also: test concentration or dose not given here
T1 sequence (looked up): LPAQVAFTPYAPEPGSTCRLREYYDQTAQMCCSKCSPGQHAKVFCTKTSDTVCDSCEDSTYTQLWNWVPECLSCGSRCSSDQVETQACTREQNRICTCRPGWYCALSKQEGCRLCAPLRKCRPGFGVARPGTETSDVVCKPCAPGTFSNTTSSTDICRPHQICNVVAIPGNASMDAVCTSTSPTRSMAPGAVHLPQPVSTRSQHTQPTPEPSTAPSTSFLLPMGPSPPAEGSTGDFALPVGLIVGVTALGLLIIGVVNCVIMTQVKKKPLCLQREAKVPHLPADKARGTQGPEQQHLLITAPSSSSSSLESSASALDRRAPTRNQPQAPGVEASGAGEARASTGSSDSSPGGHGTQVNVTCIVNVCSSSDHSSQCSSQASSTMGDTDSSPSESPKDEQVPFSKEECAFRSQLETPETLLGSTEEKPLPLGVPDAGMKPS
METHOD DESCRIPTION: cell-based or functional assay
Exercise: for every item that follows, state its recorded proliferation inhibition (TNFα-induced Treg cell proliferation, against anti-Hel).
State the answer as a number, implicitly in %.

// query Query: proliferation inhibition (TNFα-induced Treg cell proliferation, against anti-Hel); subject: TNFR2 antibody #125 (antibody, V domains shown) VH: EVQLQESGGGLVQPGGSLNLSCAASGFAFSIYDLSWVRQTPEKRLEWVAYINNGGISTYYSDTVKGRFTISRDNAKNTLYLQMSSLKSEDTAMYYCVRGPFYGSANYFDYWGQGTTVTVSS VL: DIQMTQSPASLSLSVGETVTITCRASENIYSNLAWYQQKQGKSPQLLVYDATKLAEGVPSRFSGSESGTQYSLKINSLQSEDFGTYYCQHFWVTPWTFGGGTKLEIK
// result 5.2

// query Then this binder: TNFR2 antibody #133 (antibody, V domains shown) VH: EVQLQESGAELVRSGASVKLSCTASGFNIKDYYIQWVKQRPEQGLEWIGWIDPESGNTKYAPKFQDKATMTADTSSNTAYLQLSGLTSEDSAVYYCNAYYDYDGSMDYWGQGTTVTVSS VL: DIVMTQSPLSLPVSLGDQASISCRSSQSLVHSNGNTYLHWYLQKPGQSPKLLIYKVSNRFSGVPDRFSGSGSGTDFTLKISRVETDDLGVYFCSQSTHVPTWTFGGGTKLEIK
// result 9.7

// query Field entry: TNFR2 antibody #219 (antibody, V domains shown) VH: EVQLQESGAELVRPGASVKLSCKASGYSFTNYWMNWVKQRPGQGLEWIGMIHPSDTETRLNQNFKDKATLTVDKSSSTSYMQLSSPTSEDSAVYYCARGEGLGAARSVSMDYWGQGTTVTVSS VL: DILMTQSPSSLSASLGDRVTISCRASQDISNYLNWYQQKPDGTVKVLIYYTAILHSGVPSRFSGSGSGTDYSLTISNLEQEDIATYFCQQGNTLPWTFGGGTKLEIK
// result 13.6

// query And for TNFR2 antibody #365 (antibody, V domains shown) VH: EVQLQESGPGLVQPSQSLSITCTVSGFSLTSYGVHWVRQSPGKGLEWLGLIWSDGSPDYSAAFISRLSINKDNSKSQVFFKMNSLQADDTAIYYCARNDDGGDYVMDYWGQGTTVTVSS VL: EIVLTQSPALMSASPGEKVTMTCSASSSVSYMYWYQQKPRSSPKPWIYLTSNLASGVPARFSGSGSGTSYSLTISSMEAEDAATYYCQQWTSNPLTFGAGTKLEIK ?
// result 11
